SYSTEM NAME: T1, human LAG3, full length, stably expressed on cells (human, UniProt P18627 23-525)
T1 construct: whole, on cells; also called CHOK1-human LAG3
T1 sequence (looked up): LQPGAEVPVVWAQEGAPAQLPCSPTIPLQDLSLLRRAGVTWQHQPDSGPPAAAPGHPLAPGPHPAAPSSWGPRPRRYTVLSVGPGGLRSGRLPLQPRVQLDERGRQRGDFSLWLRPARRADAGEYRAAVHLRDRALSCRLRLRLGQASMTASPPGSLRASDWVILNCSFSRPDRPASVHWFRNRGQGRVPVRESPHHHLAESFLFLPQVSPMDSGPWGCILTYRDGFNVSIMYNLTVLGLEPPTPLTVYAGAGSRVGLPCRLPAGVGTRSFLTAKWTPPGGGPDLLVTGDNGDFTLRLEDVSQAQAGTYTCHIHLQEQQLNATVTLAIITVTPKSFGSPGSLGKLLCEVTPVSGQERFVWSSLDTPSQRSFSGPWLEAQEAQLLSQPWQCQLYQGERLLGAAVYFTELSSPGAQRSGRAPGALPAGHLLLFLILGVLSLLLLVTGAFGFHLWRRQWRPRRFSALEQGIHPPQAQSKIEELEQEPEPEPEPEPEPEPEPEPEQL
ASSAY DETAILS: FACS on 293F cells stably expressing human LAG3
MEASURED QUANTITY: TOP MFI
Write no unit; give the number alone.

Task item: Respond only with TOP MFI recorded for hu023.10 (antibody, human IgG4, V domains shown, humanized from 023c) VH: QVQLVQSGPELKKPGASVKVSCKASGYTFTESPMNWVRQAPGQGFEWMGIIYTDTGEPTYAEEFKGRFVFSLDTSVSTAYLQISSLKAEDTAVYFCVSDYGSILYWYFDVWGQGTLVTVSS VL: DIQMTQSPSSLSASVGDRVTITCKASQDVSTAVAWYQQKPGKAPKLLIYSASYRYTGVPSRFSGSGSGTDFTLTISSLQPEDFATYYCQQHYNAPPTFGQGTKLEIK
Reply: 3200

Task item: Tell us which TOP MFI value is on record for hu023.07 (antibody, human IgG4, V domains shown, humanized from 023c) VH: QVQLVQSGPEVKKPGASVKVSCKASGYTFTESPMNWVRQAPGQGFEWMGIIYTDTGEPTYAEEFKGRVTMTLDTSTSTVYMELSSLRSEDTAVYFCASDYGSILYWYFDVWGQGTLVTVSS VL: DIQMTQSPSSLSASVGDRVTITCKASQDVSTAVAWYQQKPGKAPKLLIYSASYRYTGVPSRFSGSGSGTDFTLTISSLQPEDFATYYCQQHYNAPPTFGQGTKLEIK
Reply: 2990
